System: A673/TR/shEF
Assay: cell viability (LOESS-normalised, relative to median of negative controls) (log2 ratio); higher = more viable cells (less compound effect), active = hit call of the paper (over 3 MAD below the median)
Conditions: 2.5 µM; library screen: screen1; EWS-FLI1 expression: high (no doxycycline); treatment time: 72 h
In all, about 3,200 compounds went through this assay and about 300 (9.4%) showed activity. The entries come from a sample that favours actives as a whole.
Lab note - cut at 0.09 for cell viability (log2): Met if strictly below, Not met if not.

Query block: Hi there! Is cell viability (log2) for Cc1nc2ccc(NC(=S)N3CCCC3)cc2nc1C below 0.09, do you know?
Result block: Met

Query block: Hi there! Is cell viability (log2) for O=S(=O)(c1cccc2c(Cl)cccc12)N1CCCNCC1 below 0.09, do you know?
Result block: Met

Query block: Hi there! Is cell viability (log2) for CC1(C)C(=O)C=C[C@]2(C)C3CC[C@@]4(C)[C@H](c5ccoc5)OC(=O)[C@H]5O[C@]54[C@]3(C)C(=O)C[C@@H]12 (stereo partly drawn) below 0.09, do you know?
Result block: Met

Query block: Hi there! Is cell viability (log2) for O=C(O)c1cc(=O)c(O)c2c(O)c(O)ccc2c1 below 0.09, do you know?
Result block: Not met

Query block: Hi there! Is cell viability (log2) for CC(=O)O[C@@H]1CC2C(C)(C)[C@@H](O)CC[C@]2(C)C2CC[C@@]3(C)[C@H](c4ccoc4)OC(=O)[C@H]4O[C@]43[C@@]21C (stereo partly drawn) below 0.09, do you know?
Result block: Not met

Query block: Hi there! Is cell viability (log2) for CC(=O)N[C@@H]1[C@@H](O)[C@H](O)[C@@H](CO)O[C@H]1O below 0.09, do you know?
Result block: Met

Query block: Hi there! Is cell viability (log2) for CC(=O)Oc1ccc2c(c1)CCC1C2CCC2(C)C(=O)CCC12 (stereo not drawn) below 0.09, do you know?
Result block: Not met

Query block: Hi there! Is cell viability (log2) for CCCCOCCOC(=O)CCCOc1ccc(Cl)cc1Cl below 0.09, do you know?
Result block: Not met

Query block: Hi there! Is cell viability (log2) for CC(C)CCCC(C)C1CCC2C3CC=C4CC(=O)CCC4(C)C3CCC12C (stereo not drawn) below 0.09, do you know?
Result block: Not met

Query block: Hi there! Is cell viability (log2) for Cc1ccc(-c2nn(C(C)(C)C)c3ncnc(N)c23)cc1 below 0.09, do you know?
Result block: Met

Query block: Hi there! Is cell viability (log2) for COC(=O)[C@H](O)[C@H]1C(C)(C)[C@H](O)[C@@H]2CC3=C4CC(=O)O[C@@H](c5ccco5)[C@]4(C)CC[C@@H]3[C@@]1(C)C2=O below 0.09, do you know?
Result block: Met

Query block: Hi there! Is cell viability (log2) for O=S(=O)(c1cccc2c(I)cccc12)N1CCCNCC1 below 0.09, do you know?
Result block: Met

----------
Tested on: A673/TR/shEF
Experiment: cell viability (LOESS-normalised, relative to median of negative controls) (log2 ratio); higher = more viable cells (less compound effect), active = hit call of the paper (over 3 MAD below the median)
Settings: 2.5 µM; library screen: screen1; EWS-FLI1 expression: high (no doxycycline); treatment time: 72 h
Hit rate of the full screen: of about 3,200 compounds, about 300 (9.4%) showed activity. The list comes from a sample in which actives are over-represented; it also holds close analogues and randomly drawn compounds.
REPORTED_PROPERTY: cell viability (log2)
Lab note: jot down the number only; don't add units.

Query block: Consider the compound O=C(OCc1ccccc1)c1ccccc1 and give its measured cell viability (log2).
Result block: 0.0811

Query block: Consider the compound CCC/C=C/C=C/C1CC(O)C(O)C(=O)C1C=O (stereo unspecified) and give its measured cell viability (log2).
Result block: 0.0447

Query block: Consider the compound COc1cc(CN2CCN(Cc3ccc([N+](=O)[O-])cc3)CC2)c([N+](=O)[O-])cc1OC and give its measured cell viability (log2).
Result block: 0.0515

Query block: Consider the compound CCN1CCN(CC(O)COc2cc(C)c(Cl)c(C)c2)CC1 (stereo unspecified) and give its measured cell viability (log2).
Result block: 0.096

Query block: Consider the compound CC(C)c1ccc2c(c1)CC[C@@]1(C)[C@](C)(C(N)=O)CCC[C@]21C and give its measured cell viability (log2).
Result block: 0.108

Query block: Consider the compound CCC(C)C(NC)C(=O)O (stereo unspecified) and give its measured cell viability (log2).
Result block: 0.13

Query block: Consider the compound COc1c2ccoc2c(OC)c2oc(=O)ccc12 and give its measured cell viability (log2).
Result block: 0.197

Query block: Consider the compound COc1ccccc1/C=C1\SC(=S)N(C2CCS(=O)(=O)C2)C1=O (stereo unspecified) and give its measured cell viability (log2).
Result block: 0.0733

Query block: Consider the compound CC(C)/C(O)=C1/C(=O)O[C@@H](c2ccoc2)[C@]2(C)C(O)[C@@H](O)[C@@]34OC5(C)OC67CC(C)(C(O)[C@]6(O)[C@@H](O)[C@]3(O5)C12)[C@H](CC(=O)O)[C@]74C (stereo partly specified) and give its measured cell viability (log2).
Result block: 0.0749

Query block: Consider the compound CC(C)(O)[C@@H]1Cc2cc3ccc(=O)oc3cc2O1 and give its measured cell viability (log2).
Result block: 0.107

Query block: Consider the compound Clc1ccc(CN2CCN(Cc3c[nH]c4ccccc34)CC2)cc1 and give its measured cell viability (log2).
Result block: 0.152
